These entries and their values trace back to the RNAGym collection of RNA variant scans (doi:10.7554/elife.90254).

B1: OR4K15 (parent)
chain: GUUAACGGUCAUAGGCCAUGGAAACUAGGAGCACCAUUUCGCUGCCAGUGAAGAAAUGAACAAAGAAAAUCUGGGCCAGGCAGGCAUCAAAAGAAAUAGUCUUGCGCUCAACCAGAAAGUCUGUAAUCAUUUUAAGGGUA

variants of: B1; experiment: self-cleavage, relative activity (ratio to wild type); higher = more cleavage; in vitro, sequencing; the parent is a self-cleaving ribozyme
Please use satisfied whenever self-cleavage is not below 0.2, and not satisfied whenever it is.

- item_sequence: "GUUAACGGUCAUAGGCCAUGGAAACUAGGAGCACCAUUUCGCUGCCAGUGAAGAAAUGAACAAAGAAAAUCUGGGCCAGGCAGGCAUCAAAAGAAAUAAUCUUGCGCUCAACCAGAAAGUCUGUAAUCAUUUUGAGGGUA [G99A A134G]"
  group: "satisfied"
- item_sequence: "GUUAACGGUCAUAGGCCAUGGAAACUAGGAGCACCAUUUCGCUGCCAGUGAAGAAAUGAACAAAGAAAAUCUGGGCCAGGCAGGCAUCAAAAGAAAUAAUCUCGCGCUCAACCAGAAAGUCUGUAAUCAUUUUAAGGGUA [G99A U103C]"
  group: "not satisfied"
- item_sequence: "GUUAACGGUCAUAGGCCGUGGAAACUAGGAGCACCAUUUCGCUGCCAGUGAAGAAAUGAACAAAGAAAAUCUGGGCCAGGCAGGCAUCAAAAGAAAUAGUCUUGCGCUCAACCAGAAAGACUGUAAUCAUUUUAAGGGUA [A18G U120A]"
  group: "satisfied"
- item_sequence: "GUUAACGGUCAUAGGCCAUUGAAACUAGGAGCACCAUUUCGCUGCCAGUGAAGAAAUGAACAAAGAAAAUCUGGGCCAGGCAGGCAUCAAAAGAAAUAGUCUUGCGCUCAACCAGAAAGUCAGUAAUCAUUUUAAGGGUA [G20U U122A]"
  group: "satisfied"
- item_sequence: "GUUAACGGUCAUAGGCCAUGGAAACUAGGAGCACCAUUUCGCUGCCAGUGAAGAAAUGAACAAAGAAAAUCUGGGCCAGGCAGGCAUCAAACGAAAUAGUCUUGCGCUCAACCAGAAAGUCUGUAAUCAUCUUAAGGGUA [A92C U131C]"
  group: "satisfied"
- item_sequence: "GUUAACGGUCAUAGGCCAUGGAAACUAGGAGCACCAUUUCGCUGCCAGUGAAGAAAUGAACAAAGAAAAUCUGGGCCAGGCAGGCAUCAAAAGAAAUAGUCUUGCGCUCAACCAGAAAGUCCGUAAUCAUUUUAAGGGAA [U122C U139A]"
  group: "satisfied"
- item_sequence: "GUUAACGGUCAUAGGCCAUGGAAACUAGGAGCACCAUUUCGCUGCCAGUGAAGAAAUGAACAAAGAAAAUCUGGGCCAGGCAAGCUUCAAAAGAAAUAGUCUUGCGCUCAACCAGAAAGUCUGUAAUCAUUUUAAGGGUA [G83A A86U]"
  group: "satisfied"
- item_sequence: "GUUAACGGUCAUAGGCCAUGGAAACUAGGAGCACCAUUUCGCUGCCAGUGAAGAAAUGAACAAAGAAAAUCUGGGCCAGGCAGGCAUCAAAUGAAAUAGUCUUACGCUCAACCAGAAAGUCUGUAAUCAUUUUAAGGGUA [A92U G104A]"
  group: "not satisfied"
- item_sequence: "GUUAACGGUCAUAGGCCACGGUAACUAGGAGCACCAUUUCGCUGCCAGUGAAGAAAUGAACAAAGAAAAUCUGGGCCAGGCAGGCAUCAAAAGAAAUAGUCUUGCGCUCAACCAGAAAGUCUGUAAUCAUUUUAAGGGUA [U19C A22U]"
  group: "satisfied"
- item_sequence: "GUUAACGGUCAUAGGCCAUGGAAACUAGGAGCACCAUUUCGCUGCCAGUGAAGAAAUGAACAAAGAAAAUCUGGGCCAGGCAGGCAUCAAAAGAAAUUGUCUUACGCUCAACCAGAAAGUCUGUAAUCAUUUUAAGGGUA [A98U G104A]"
  group: "not satisfied"
- item_sequence: "GUUAACGGUCAUAGGCCAUGGAAUCUAGGAGCACCAUUUCGCUGCCAGUGGAGAAAUGAACAAAGAAAAUCUGGGCCAGGCAGGCAUCAAAAGAAAUAGUCUUGCGCUCAACCAGAAAGUCUGUAAUCAUUUUAAGGGUA [A24U A51G]"
  group: "satisfied"
- item_sequence: "GUUAACGGUCAUAGGCCAUGGAAACUAGGAGCACCAUUUCGCUGCCAGUGAAGAAAUGAACAAAGAAAAUCUGGGCCAGGCAGGCAUCAAAAGAAAUAGUCUUGCGCUCUACCUGAAAGUCUGUAAUCAUUUUAAGGGUA [A110U A114U]"
  group: "not satisfied"
- item_sequence: "GUUAACGGUCAUAGGCCAUGGAAACUAGGAGCACCAUUUCGCUGCCAGUGAAGAAAUGAACAAAGAAAAUCUGGGCCAGGCAGGCAUCAAGAGAAAUAGUCUUGCGCUCAACCAGAAAGUCUGUAACCAUUUUAAGGGUA [A91G U127C]"
  group: "satisfied"
- item_sequence: "GUUAACGGUCAUGGGCCAUGGAAACUAGGAGCACCAUUUCGCUGCCAGUGAAGAAAUGAACAAAGAAAAUCAGGGCCAGGCAGGCAUCAAAAGAAAUAGUCUUGCGCUCAACCAGAAAGUCUGUAAUCAUUUUAAGGGUA [A13G U72A]"
  group: "satisfied"
- item_sequence: "GUUAACGGUCAUAGGCCAUGGAAACUAGGAGCACCAUUUCGCUGCCAGUGAAGAAAUGAACAAAGAAAAUCUGGGCCAGGCAGGCAUCAAAAGAAAUCGUCUUGCGCUCAACCAGAAAGUCCGUAAUCAUUUUAAGGGUA [A98C U122C]"
  group: "satisfied"
- item_sequence: "GUUAUCGGUCAUAGGCCAUGGAAACUAGGAGCACCACUUCGCUGCCAGUGAAGAAAUGAACAAAGAAAAUCUGGGCCAGGCAGGCAUCAAAAGAAAUAGUCUUGCGCUCAACCAGAAAGUCUGUAAUCAUUUUAAGGGUA [A5U U37C]"
  group: "satisfied"
- item_sequence: "GUUUACGGUCAUAGGCCAUGGAAACUAGGAGCACCAUUUCGCUGCCAGUGAAGAAAUGAACAAAGAAAAUCUGGGCCAGGCAGGCAUCAAAAGAAAUAGUCUUGCGCCCAACCAGAAAGUCUGUAAUCAUUUUAAGGGUA [A4U U108C]"
  group: "not satisfied"
- item_sequence: "GUUAACGGUCACAGGCCAUGGAAACUAGGAGCACCAUUUCGCUGCCAGUGAAGAAACGAACAAAGAAAAUCUGGGCCAGGCAGGCAUCAAAAGAAAUAGUCUUGCGCUCAACCAGAAAGUCUGUAAUCAUUUUAAGGGUA [U12C U57C]"
  group: "satisfied"
- item_sequence: "GUUAACGGUCAUAGGCCAUGGAAACUAGGAGCACCAUUUCGCUGCCAGUGAAGAAAUGAACAAAGAAAGUCUGGGCCAGGCGGGCAUCAAAAGAAAUAGUCUUGCGCUCAACCAGAAAGUCUGUAAUCAUUUUAAGGGUA [A69G A82G]"
  group: "satisfied"
- item_sequence: "GUUAACGGUCAUAGGCCAUGGAAACUAGGAGCACCAAUUCGCUGCCAGUGAAGAAAUGAACAAAGAAAAUCUGGGCCAGGCAGGCAUCAAAAGAAAUAGUCUUGCGCUCAACCAGAAAGUCUGUAAUCAUUUUAUGGGUA [U37A A135U]"
  group: "satisfied"
- item_sequence: "GCUAACGGUCAUAGGCCAUGGAAACUAGGAGCACCAUUUCGCUGCCAGUGAAGAAAUGAACAAAGAAAAUCUGGGCCAGGCAGGCAUCAAAAGAAAUAGUCUUGUGCUCAACCAGAAAGUCUGUAAUCAUUUUAAGGGUA [U2C C105U]"
  group: "not satisfied"
